- System: Saccharomyces cerevisiae
- experimental-details: protein stability index of tFT-peptide fusion in deletion strain of DAS1 (PSI (0-1 scale)); higher = more stable (slower turnover)
measure-name: protein stability index
Numbers only.

Example cases with answers are listed next.
>  <sequence-code>
KKHKKGQKCKIN

>  <protein stability index>
0.59

$$$$
>  <sequence-code>
LIVYLSCVACIN

>  <protein stability index>
0.0335

$$$$
>  <sequence-code>
PDKCNHLIKLLN

>  <protein stability index>
0.586

$$$$

List reported protein stability index for each of these sequences:
1. KYHKKGQKQKIN
2. LKILRQKMNHQF
3. RLIQPLPVQFHN
4. LVVYLSCVKCIN

Result block:
[0.595, 0.678, 0.616, 0.319]

List reported protein stability index for each of these sequences:
1. FSMRPTFRYWVN
2. KKHKKNQKQKIN
3. QTSCGYKFRTNN
4. FSMCWTFRYWVN
5. DLIQPLPVQFLN
6. PSLAAIFWRVVG
7. CTSCGYKFRQNN
8. KRGAVGGWRLVG

Result block:
1: 0.562; 2: 0.585; 3: 0.673; 4: 0.412; 5: 0.59; 6: 0.645; 7: 0.69; 8: 0.648

List reported protein stability index for each of these sequences:
1. CTSCGYKFHTNN
2. KKHKKGQKQKINE
3. LVVYLSCSACIN
4. LKILRQTMNHQN

Result block:
0.713
0.662
0.0361
0.677

----------
- Test system: Saccharomyces cerevisiae
- experimental-details: protein stability index of tFT-peptide fusion (C-terminal peptide) (PSI (0-1 scale)); higher = more stable (slower turnover)
- condition-context: genetic background: wild type; temperature: 30 C
measure-name: protein stability index
Answers are plain numbers.

List reported protein stability index for each of these sequences:
1. LSLALGSPGALP
2. GRVCWVVLAGLV

Result block:
1: 0.703; 2: 0.429

List reported protein stability index for each of these sequences:
1. KFRGMTLRNKVC
2. IGNFTTEVDGWG
3. PPSPPSPPPSAP
4. VRATSMWRSRGR
5. CLWTSAQVPFQT

Result block:
[0.267, 0.662, 0.704, 0.688, 0.703]

List reported protein stability index for each of these sequences:
1. GVGYCCVSGGLG
2. QHFIRGWAWPTV
3. RRQPPRDQGTPC

Result block:
1: 0.722; 2: 0.729; 3: 0.795

List reported protein stability index for each of these sequences:
1. ALHPPSPPPPAP
2. WCPGAGGAVVVV
3. RARELGVPPPPP
4. SVIVSSFFLWVF
5. PGRQSPPAPLYR

Result block:
1. 0.731
2. 0.658
3. 0.579
4. 0.288
5. 0.678

List reported protein stability index for each of these sequences:
1. PRPQTSAHAETG
2. PPLSFDTSRVAP

Result block:
1. 0.644
2. 0.677

List reported protein stability index for each of these sequences:
1. MMEQLCCRRRLF
2. SYLRGPIVTGFG
3. VFLLCLGFLVFS
4. GNGRGKKEGPKN
5. PHRPTALALHWF
6. LMCGPARSPLTT

Result block:
0.496
0.712
0.336
0.657
0.66
0.67

List reported protein stability index for each of these sequences:
1. GELADVVWLGGE
2. AGASCGGRPDTA

Result block:
1. 0.652
2. 0.607

List reported protein stability index for each of these sequences:
1. RCTWEATYNLRY
2. LGGVRWNPGCRG
3. PPQLSRHVSTRP
4. PHFDLLLCLSLN

Result block:
1: 0.749; 2: 0.661; 3: 0.754; 4: 0.366

----------
- Test system: Saccharomyces cerevisiae
- experimental-details: protein stability index of tFT-peptide fusion (C-terminal peptide) (PSI (0-1 scale)); higher = more stable (slower turnover)
- condition-context: genetic background: cdc34-1; temperature: 37 C
Would you mind telling me the reported protein stability index of each entry?
One number for each entry.

Example cases with answers are listed next.
>  <sequence-code>
ESRDRRVGIANW

>  <protein stability index>
0.69

$$$$
>  <sequence-code>
SWGEQDRLTGYI

>  <protein stability index>
0.715

$$$$
>  <sequence-code>
GFLAVTVACVWR

>  <protein stability index>
0.0513

$$$$
>  <sequence-code>
FYLFPSLPLLLL

>  <protein stability index>
0.424

$$$$
>  <sequence-code>
WILIGVRFSCFG

>  <protein stability index>
0.109

$$$$
>  <sequence-code>
QHRAIKIEIKIN

>  <protein stability index>
0.439

$$$$
>  <sequence-code>
STNMDNRIRTLA

>  <protein stability index>
0.659

$$$$
>  <sequence-code>
TGPLVHLLCCCV

>  <protein stability index>
0.354

$$$$

List reported protein stability index for each of these sequences:
1. CVCPFCVWVSCL
2. LFFFRLFVFWVF

Result block:
1: 0.598; 2: 0.195

List reported protein stability index for each of these sequences:
1. PWWDALLRARVC
2. FFVMVFTVEVFV
3. SFFYFVFYYLSF
4. ALRLPPPPFSLY
5. ALRGLWFPFSCL
6. RSFNVGLELLVW
7. RGCLVHSGFFIV
8. SLRPFFPPLPRP

Result block:
0.429
0.0407
0.161
0.677
0.66
0.382
0.65
0.631

----------
- Test system: Saccharomyces cerevisiae
- experimental-details: protein stability index of tFT-peptide fusion (C-terminal peptide) (PSI (0-1 scale)); higher = more stable (slower turnover)
- condition-context: genetic background: wild type; temperature: 30 C
measure-name: protein stability index
One number for each entry.

>  <sequence-code>
PPPRPRYLHPPS

>  <measure-name>
protein stability index

>  <result-value>
0.719

$$$$
>  <sequence-code>
LSTPWADPTSSP

>  <measure-name>
protein stability index

>  <result-value>
0.716

$$$$
>  <sequence-code>
SPATDRTSLFES

>  <measure-name>
protein stability index

>  <result-value>
0.729

$$$$

List reported protein stability index for each of these sequences:
1. MSRPSLARLPAS
2. SVLVQLLATTKS
3. TGVSTRVTHTAP
4. HFPLRIYSPNGP
5. LSPPPRPPLAPP

Result block:
1: 0.711; 2: 0.675; 3: 0.707; 4: 0.697; 5: 0.65

List reported protein stability index for each of these sequences:
1. WWEVSFRVGAVR
2. DERESLFPLCSG
3. GRVAGNERGGGR
4. LWGGGGAGYWVG

Result block:
[0.648, 0.725, 0.608, 0.732]

List reported protein stability index for each of these sequences:
1. PPPPLPHPPAAS
2. GVGWFGRGTVGW
3. QESKRKDMKERN
4. HPSGLFSFVCLS
5. PPPLGPPPPSSL
6. LEGEESISQMNE
7. FSGRRGCFSSYI
8. GTRQLGRTEPGE

Result block:
[0.7, 0.676, 0.75, 0.567, 0.774, 0.664, 0.653, 0.695]

----------
- Tested on: Saccharomyces cerevisiae
- experimental-details: protein stability index of tFT-peptide fusion (C-terminal peptide) (PSI (0-1 scale)); higher = more stable (slower turnover)
- condition-context: genetic background: wild type; temperature: 30 C
measure-name: protein stability index
Answers are plain numbers.

Example cases with answers are listed next.
>  <sequence-code>
WQILVRLIDFYT

>  <protein stability index>
0.338

$$$$
>  <sequence-code>
FWILLRVLIFVL

>  <protein stability index>
0.175

$$$$
>  <sequence-code>
GGGHGSSCSVCD

>  <protein stability index>
0.645

$$$$

Now take the following sequence into account.
Query block: Give its protein stability index value. Item: `MIVAIQLVDHPP`
Result block: 0.426

----------
- System: Saccharomyces cerevisiae
- experimental-details: protein stability index of tFT-peptide fusion (C-terminal peptide) (PSI (0-1 scale)); higher = more stable (slower turnover)
- condition-context: genetic background: wild type; temperature: 30 C
measure-name: protein stability index
Answers are plain numbers.

>  <sequence-code>
EKIKKILSELKK [NKP1 C-terminal 12 aa]

>  <experimental-target>
Saccharomyces cerevisiae

>  <protein stability index>
0.715

$$$$

List reported protein stability index for each of these sequences:
1. GETIRVNYGSTQ [YJR154W C-terminal 12 aa]
2. INILPVRKKKKV [SAS4 C-terminal 12 aa]
3. FLWEMFELKLYL [YMR119W-A C-terminal 12 aa]

Result block:
0.689
0.685
0.71

----------
- Test system: Saccharomyces cerevisiae
- experimental-details: protein stability index of tFT-peptide fusion (C-terminal peptide) (PSI (0-1 scale)); higher = more stable (slower turnover)
- condition-context: genetic background: wild type; temperature: 30 C
measure-name: protein stability index
Numbers only.

List reported protein stability index for each of these sequences:
1. GGGPGRGVWVRV
2. LFSDLCRVAWSL
3. PPSPPLLFHFPP
4. PHTHHAPNTRNQ

Result block:
[0.705, 0.615, 0.586, 0.68]
